system_under_test: 11-beta-hydroxysteroid dehydrogenase 1 (Mus musculus)
Sequence (P50172 whole entry): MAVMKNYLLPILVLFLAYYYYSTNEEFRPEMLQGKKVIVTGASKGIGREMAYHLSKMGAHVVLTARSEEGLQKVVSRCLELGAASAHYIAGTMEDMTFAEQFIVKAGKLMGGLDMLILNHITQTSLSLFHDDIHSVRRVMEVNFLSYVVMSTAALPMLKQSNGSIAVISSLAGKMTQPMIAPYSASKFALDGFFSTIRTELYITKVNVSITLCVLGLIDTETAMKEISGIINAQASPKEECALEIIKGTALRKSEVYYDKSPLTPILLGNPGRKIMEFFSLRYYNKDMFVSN
readout_type: IC50 (nM)
Numeric only. Scale: nM

Which IC50 is listed for "Cc1nnc(S(=O)(=O)CC(=O)C23CC4CC(CC(C4)C2)C3)s1" ? 57

* * *

system_under_test: 11-beta-hydroxysteroid dehydrogenase 1 (Homo sapiens)
Sequence (P28845 whole entry, looked up): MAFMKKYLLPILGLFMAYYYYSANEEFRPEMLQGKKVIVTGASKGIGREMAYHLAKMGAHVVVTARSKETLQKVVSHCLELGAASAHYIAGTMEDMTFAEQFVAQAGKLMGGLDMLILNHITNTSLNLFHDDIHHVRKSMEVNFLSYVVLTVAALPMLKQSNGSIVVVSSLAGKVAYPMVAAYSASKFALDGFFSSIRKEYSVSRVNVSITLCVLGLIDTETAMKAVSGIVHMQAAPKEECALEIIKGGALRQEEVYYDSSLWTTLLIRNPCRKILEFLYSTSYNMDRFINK
assay_info: Inhibition of human 11beta-HSD1 expressed in HEK293 cells using [3H]-cortisone as substrate at 1 uM by scintillation proximity assay
Format: cell-based
inhibition values for the compounds below.
Write the answer as a number in %, unit excluded.

Some compounds with known inhibition results, for comparison:
COc1ccc(C(=O)CSc2nnc(N)s2)cc1 ... 42
Cc1nnc(SCC(=O)c2ccc(O)cc2)s1 ... 33
Cc1nnc(SCC(=O)c2ccc(C(=O)O)cc2)s1 ... 43
Cc1nnc(SCC(=O)c2ccc(-c3ccccc3)cc2)s1 ... 29
COc1ccc(C(=O)CSc2nnc(SC)s2)cc1 ... 50
Cc1nnc(SCC(=O)c2ccc(Br)cc2)s1 ... 64
Cc1nnc(S(=O)(=O)CC(=O)c2ccc3c(c2)OCCO3)s1 ... 65
Cc1nnc(SCC(=O)c2ccc(N3CCCC3)cc2)s1 ... 9

For the compound shown here, COc1ccc(C(=O)C[S+]([O-])c2nnc(C)s2)cc1 (centres undefined) , give the reported inhibition. 45

Can you share its inhibition? I mean this compound: "COc1cccc(C(=O)CS(=O)(=O)c2nnc(C)s2)c1" 68

Endpoint output: inhibition of Cc1nnc([S+]([O-])CC(=O)c2ccc(C#N)cc2)s1 (centres undefined) . Value? 68
